Data origin, for the record: PubChem BioAssay (NCI)

- Tested on: HCC-2998 colon
- MEASUREMENT PROTOCOL: NCI-60 one-dose screen, 48 h (100 = growth as untreated, 0 = no growth, -100 = all killed)
- TEST CONTEXT: 10 µM unless noted
The panel holds about 83,000 compounds, 20% with a hit somewhere; the sample as a whole holds those more often.
growth vs 70%: at or above is MET, below is NOT MET.

Hi, just wondering whether C=C(C)C(C(=O)OCC)(C(=O)OCC)C(C)C shows growth of 70% or higher. MET

Hi, just wondering whether N#Cc1ccc(OCc2nc(N)nc(N)c2-c2ccc(Cl)c(Cl)c2)cc1 shows growth of 70% or higher. NOT MET

Hi, just wondering whether O=C(O)CS(=O)c1ccc(Cl)cc1 (configuration not stated) shows growth of 70% or higher. MET

Hi, just wondering whether Oc1ccc(N=Nc2ccc(N=Nc3ccccc3)cc2)cc1 shows growth of 70% or higher. NOT MET

Hi, just wondering whether COc1ccc(-c2nc(SCC(C)C)nc(Nc3ccc([N+](=O)[O-])cc3)c2C#N)cc1 shows growth of 70% or higher. MET

Hi, just wondering whether CN1NC(c2ccccc2)NN(C)C1=O shows growth of 70% or higher. MET

Hi, just wondering whether O=C1C(Cl)=C(SC2=NCCN2)C(=O)c2ccccc21 shows growth of 70% or higher. MET

Hi, just wondering whether CCOC(=O)C1=C(C(F)(F)F)NC(=O)NC1CN1C(=O)c2ccccc2C1=O (configuration not stated) shows growth of 70% or higher. MET

Hi, just wondering whether COc1cc2cc3cc4cc(OC)c(OC)cc4c(C)[n+]3cc2cc1OC (tested in a mixture with another compound) shows growth of 70% or higher. MET

Hi, just wondering whether Cc1ccc(C(=O)C(Br)C(Br)c2ccccc2)cc1 (configuration not stated) shows growth of 70% or higher. MET

Hi, just wondering whether COc1ccc(-n2nnnc2-c2cn[nH]c2C(F)(F)F)cc1 shows growth of 70% or higher. MET

Hi, just wondering whether CC(=O)C(CO)C(=O)Nc1ccccc1 (configuration not stated) shows growth of 70% or higher. MET

Hi, just wondering whether O=P(OCCCl)(OCCCl)C(O)c1ccccc1Cl (configuration not stated) shows growth of 70% or higher. MET

Hi, just wondering whether OCCN1CCN(CC/C=C2/c3ccccc3Sc3ccc(C(F)(F)F)cc32)CC1 shows growth of 70% or higher. NOT MET

Hi, just wondering whether COc1cc(Cn2ccc3c2-c2oncc2CC3)cc(OC)c1 shows growth of 70% or higher. NOT MET

Hi, just wondering whether C/C(=N\Nc1cccc(Cl)n1)c1ccccn1 shows growth of 70% or higher. NOT MET

Hi, just wondering whether COc1ccc2nc3cc(Cl)ccc3c(NCCCNC(C)=O)c2c1 shows growth of 70% or higher. NOT MET

Hi, just wondering whether NNC(=O)CNc1ccc2ccccc2c1 shows growth of 70% or higher. MET

Hi, just wondering whether CC(C)(C)OC(=O)N1C/C(=C\c2ccccc2)C(=O)/C(=C/c2ccccc2)C1 shows growth of 70% or higher. MET

Hi, just wondering whether COc1ccc(/C=C(/C(=O)N2CCN(c3ccc(C)cc3)CC2)c2cc(OC)c(OC)c(OC)c2)cc1N shows growth of 70% or higher. NOT MET

Hi, just wondering whether CCCCCCCCCC[N+](C)(C)C shows growth of 70% or higher. NOT MET

* * *

- Tested on: OVCAR-3 ovarian
- MEASUREMENT PROTOCOL: NCI-60 one-dose screen, 48 h
- TEST CONTEXT: 10 µM unless noted
- Method: Growth inhibition of the OVCAR-3 human tumor cell line is measured as a screen for anti-cancer activity. Cells are grown in 96 well plates and exposed to the test compound for 48 hours. Compounds are tested at a single concentration, which is 10^-5 M for most compounds. The reported endpoint is percent growth (GI% or GIPRCNT), where numbers from 0 - 100% represent growth inhibition, and numbers from -100% - 0 represent cell death. For example, a value of 40 represents 60% growth inhibition. […]
This is part of a sample that, as a whole, favours compounds with a hit. Of some 83,000 tested, about 20% had one in any assay. Calls of active or inactive are those of the source. The calls were made as follows: active = growth percent below 10; inactive = the rest.
In this exercise, the only acceptable responses are Yes (active), No (inactive)

Dear colleague, could you share the recorded outcome for O=C(CCC(=O)N(CCO)CCO)N(CCO)CCO when you have a moment? No

Dear colleague, could you share the recorded outcome for COC1NC(Cl)=C(C#N)C(C#N)(C#N)C1(C)C (stereo not drawn) when you have a moment? No

Dear colleague, could you share the recorded outcome for Oc1ccccc1/C=N/N=C\c1ccccc1Cl when you have a moment? No

Dear colleague, could you share the recorded outcome for COc1ccc(/C=C2\CCCC3=C2N=C2SC=NN2C3c2ccc(OC)c(OC)c2)cc1OC (stereo not drawn) when you have a moment? No

Dear colleague, could you share the recorded outcome for O=C(Oc1ccccc1)c1ccccc1Cl when you have a moment? No

Dear colleague, could you share the recorded outcome for CCOC(=O)c1ccc2n1CCCc1cnc(NC(C)=O)nc1-2 when you have a moment? No

Dear colleague, could you share the recorded outcome for O=C1/C(=C/c2ccc(Cl)cc2)CCC/C1=C\c1ccc(Cl)cc1 when you have a moment? No

Dear colleague, could you share the recorded outcome for CCCCCCCCCCCCCCCCNC(=O)Nc1ccc(C)c(NC(=O)NCCCCCCCCCCCCCCCC)c1 when you have a moment? No

Dear colleague, could you share the recorded outcome for CC(O)CN(CCO)CCN(CCO)CC(C)O (stereo not drawn) when you have a moment? No

Dear colleague, could you share the recorded outcome for CCN(CC)CCOC(=O)c1cccnc1 when you have a moment? No

Dear colleague, could you share the recorded outcome for Cc1nc2ccccc2c(=O)n1-c1cccc(OCc2cn(-c3cccc(O)c3)nn2)c1 when you have a moment? No

Dear colleague, could you share the recorded outcome for CC(=O)OCC(=O)[C@@]1(O)[C@H](C)C[C@H]2[C@@H]3C=C(C)C4=Cc5c(cnn5-c5ccc(F)cc5)C[C@]4(C)[C@H]3[C@@H](O)C[C@@]21C when you have a moment? Yes

Dear colleague, could you share the recorded outcome for C[C@]12CC[C@H]3[C@@H](CC[C@H]4C[C@@H](O)CC[C@@]43C)[C@@H]1CC(=O)C2 when you have a moment? No

* * *

- Tested on: NCI-H226 lung
- MEASUREMENT PROTOCOL: NCI-60 one-dose screen, 48 h (100 = growth as untreated, 0 = no growth, -100 = all killed)
- TEST CONTEXT: 10 µM unless noted
This is part of a sample that, as a whole, favours compounds with a hit. Of some 83,000 tested, about 20% had one in any assay.
Record form. Attribute: growth. Fill in for each entry.
Entry rule: numbers only, all in %.

Let me know recorded growth for COC(=O)/C=C1/CCCCC1(C)C(=O)OC (stereo unspecified) , thanks. 102

Let me know recorded growth for O=C(NC1CCN(Cc2ccccc2)CC1)c1cc(-c2cccnc2)nc2ccc(Cl)cc12 , thanks. 84

Let me know recorded growth for CCCCN(CCCC)CCCNc1c2c(nc3ccc(Cl)cc13)CCCC2 , thanks. 100

Let me know recorded growth for O=C(/C=C1\C(=O)N(Cc2ccc([N+](=O)[O-])cc2)c2ccccc21)c1ccc(OCCN2CCCC2)cc1 , thanks. 78.5

Let me know recorded growth for O=C(CCCC(=O)Nc1ccc(Cn2nnc3cc(Cl)c(Cl)cc32)cc1)Nc1ccc(CN2N=NC3C=C(Cl)C(Cl)=CC32)cc1 (stereo unspecified) , thanks. 72.7

Let me know recorded growth for COC(=O)c1ccc2[nH]c(O)c(C(=Nc3ccc(N(C)C(=O)CN4CCN(C)CC4)cc3)c3ccc(N)cc3)c2c1 , thanks. 56.5

* * *

- Test system: OVCAR-8 ovarian
- MEASUREMENT PROTOCOL: NCI-60 one-dose screen, 48 h (100 = growth as untreated, 0 = no growth, -100 = all killed)
- TEST CONTEXT: 10 µM unless noted
About 83,000 compounds went through this panel and 20% of them were active in at least one assay; those are over-represented in the sample as a whole.
Record form. Attribute: growth. Fill in for each entry.
Entry rule: numbers only, all in %.

Let me know recorded growth for C/C=C(/C)C(=O)OC1C=C(CO)C(=O)C(OC(=O)/C(C)=C\C)C1C(C)C (centres undefined) , thanks. -22.7

Let me know recorded growth for Cc1ccc(S(=O)(=O)NC(CCC(=O)Nc2ccccc2)C(=O)Nc2ccccc2)cc1 (centres undefined) , thanks. -10.9

Let me know recorded growth for Oc1ccccc1/C=N/N=C/c1c(O)ccc2ccccc12 , thanks. 80.6

Let me know recorded growth for O=C(Nc1ccc(-n2cc(-c3ccncc3)c(-c3ccc(Cl)c(O)c3)n2)cc1)Nc1ccc(Cl)c(C(F)(F)F)c1 , thanks. 1.06

Let me know recorded growth for COc1ccc(-c2cc(C#N)c(NNC(C)=O)[nH]2)cc1 , thanks. 110

Let me know recorded growth for COc1ccc(C(=O)CN2C(=O)NC(c3ccccc3)(c3ccccc3)C2=O)cc1 , thanks. 95.2

Let me know recorded growth for COc1ccc(OC)c(Cn2cc3c(c2-c2ccccc2)CCc2cnoc2-3)c1 , thanks. 79

Let me know recorded growth for C#CCCCCCCC[C@@H]1OC(=O)[C@H]([C@@H](C)CC)NC(=O)[C@@H]([C@@H](C)CC)NC(=O)CC(=O)[C@@H]1C , thanks. 99.8

Let me know recorded growth for C=CN(C)S(C)(=O)=O , thanks. 34.8

Let me know recorded growth for O=Nc1ccc(O)c2ccccc12 , thanks. 7.56

Let me know recorded growth for Cc1ccc(OCCn2ccc(=O)n(CCOc3ccc(Cl)cc3C(=O)c3cc(C)cc(C)c3)c2=O)cc1 , thanks. 70

Let me know recorded growth for Cc1ccc(C(=O)Nc2ccc(CN3CCN(C)CC3)c(C(F)(F)F)c2)cc1C#Cc1cncc2ncccc12 , thanks. -76.8

Let me know recorded growth for Nc1nc(-c2cccc(Br)c2)cc(-c2cc3ccccc3oc2=O)n1 , thanks. 97.2

Let me know recorded growth for COc1cc2c(c(OC)c1OC)C(=O)CC(c1cccc(C(=O)Nc3cccc(Br)c3)c1)O2 (centres undefined) , thanks. 55

Let me know recorded growth for O=C1NCCN1/N=C/c1c(Cl)nc2n1CCS2 , thanks. 115

Let me know recorded growth for CC1C(=O)CCCC1=O , thanks. 107

Let me know recorded growth for CCCC(CCC)Oc1ccc(CCCC2=C(O)c3ccccc3C(=O)C2=O)cc1 , thanks. 34.2

Let me know recorded growth for COc1ccc(Cn2cc3c(c2-c2ccc(O)cc2)CCc2cnoc2-3)cc1 , thanks. 34.9

Let me know recorded growth for N#Cc1ccc(OCc2nc(N)nc(N)c2-c2ccc(Cl)c(Cl)c2)cc1 , thanks. 19.5

Let me know recorded growth for CC1Cc2cc(F)ccc2-n2cccc21 (centres undefined) , thanks. 99.5

Let me know recorded growth for O=C(Nc1ccc(Cl)c(Cl)c1)O/N=C\c1c(Cl)ccc([N+](=O)[O-])c1Cl , thanks. 8

Let me know recorded growth for O=c1[nH]c2cc(O)ccc2n2cc3c(F)cccc3c12 , thanks. 24.6

Let me know recorded growth for CC([C@H]1CCC2C3CCC4C[C@@H](N)CC[C@]4(C)C3CC[C@@]21C)N(C)C (some centres undefined) , thanks. 85.7

Let me know recorded growth for c1cc(C2CCCCC2)ccc1OCCCCCCN1CCNCC1 , thanks. 48
